The measured values listed here are drawn from the Kinase Knowledgebase extract (Sharma et al. 2016).

biological target: MAPK14 (human); experiment: Inhibition of TNF-alpha Production from LPS Stimulated PBMC
pIC50: −log10 of the molar value.
metric-name: pIC50

Some entries whose results are on file:
| molecule | pIC50 |
| --- | --- |
| Fc1ccc(-c2nc(SCc3ccccc3)[nH]c2-c2ccnc(Cl)c2)cc1 | 4.22 |
| CC(Nc1cc(-c2[nH]c(SCc3ccccc3)nc2-c2ccc(F)cc2)ccn1)c1ccccc1 (stereo unspecified) | 5.57 |
| CSc1nc(-c2ccc(F)cc2)c(-c2ccnc(OC(C)C)c2)[nH]1 | 5.34 |
| CSc1nc(-c2ccc(F)cc2)c(-c2ccnc(Cl)c2)[nH]1 | 5.66 |

I = C[S+]([O-])c1ccc(CSc2nc(-c3ccc(F)cc3)c(-c3ccnc(NCc4ccccc4)c3)[nH]2)cc1 (stereo unspecified)
II = CC(Nc1cc(-c2[nH]c(SCc3ccc([S+](C)[O-])cc3)nc2-c2ccc(F)cc2)ccn1)c1ccccc1 (stereo unspecified)
III = C[S+]([O-])c1ccc(CSc2nc(-c3ccc(F)cc3)c(-c3ccnc(F)c3)[nH]2)cc1 (stereo unspecified)
IV = COc1ccc(CNc2cc(-c3[nH]c(SCc4ccccc4)nc3-c3ccc(F)cc3)ccn2)cc1
V = Fc1ccc(-c2nc(SCc3ccccc3)[nH]c2-c2ccnc(F)c2)cc1
# rank by pIC50, ascending (min first) Response field: labels, in requested order. V, IV, III, I, II

a = COc1cc(-c2[nH]c(SC)nc2-c2ccc(F)cc2)ccn1
b = CSc1nc(-c2ccc(F)cc2)c(-c2ccnc(NCc3ccc(C)cc3)c2)[nH]1
c = C[S+]([O-])c1ccc(CSc2nc(-c3ccc(F)cc3)c(-c3ccnc(Cl)c3)[nH]2)cc1 (stereo unspecified)
Sort the molecules on pIC50; start with the lowest figure. # the answer lists labels in the order requested c, a, b

P = CSc1nc(-c2ccc(F)cc2)c(-c2ccnc(Nc3ccccc3)c2)[nH]1
Q = CSc1nc(-c2ccc(F)cc2)c(-c2ccnc(NCc3ccccc3)c2)[nH]1
R = Fc1ccc(-c2nc(SCc3ccccc3)[nH]c2-c2ccnc(NCc3ccccc3)c2)cc1
With regard to pIC50, arrange the entries in ascending order, please. Show the ranking through the labels, in the order asked for. R, Q, P

1 = CSc1nc(-c2ccc(F)cc2)c(-c2cc[nH]c(=O)c2)[nH]1
2 = CSc1nc(-c2ccc(F)cc2)c(-c2ccnc(NCc3ccc(Cl)cc3)c2)[nH]1
Would you mind telling me which has the lower recorded pIC50 between 1 and 2 ? Which one? Tell me its label. 1

----------
molecular target: MAPK14 (human) (UniProt Q16539); assay: Inhibition of IL-1 beta Release from LPS Stimulated Whole Blood Culture; details: blood cells
Sequence (Q16539 whole entry, looked up): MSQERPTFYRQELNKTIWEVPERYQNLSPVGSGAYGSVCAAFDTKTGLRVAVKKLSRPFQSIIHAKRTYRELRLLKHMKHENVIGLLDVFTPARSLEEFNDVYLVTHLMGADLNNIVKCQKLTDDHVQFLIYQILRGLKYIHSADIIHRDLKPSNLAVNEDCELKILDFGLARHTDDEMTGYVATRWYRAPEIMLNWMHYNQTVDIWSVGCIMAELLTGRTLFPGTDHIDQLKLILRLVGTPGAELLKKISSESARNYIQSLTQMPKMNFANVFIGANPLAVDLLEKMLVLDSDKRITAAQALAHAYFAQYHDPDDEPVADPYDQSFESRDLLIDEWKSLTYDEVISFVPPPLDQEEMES
pIC50: −log10 of the molar value.
metric-name: pIC50

| molecule | pIC50 |
| --- | --- |
| CSc1nc(-c2ccc(F)cc2)c(-c2ccnc(NCc3ccc(Cl)cc3)c2)[nH]1 | 4.88 |
| CSc1nc(-c2ccc(F)cc2)c(-c2ccnc(NCCc3ccccc3)c2)[nH]1 | 4.77 |
| CSc1nc(-c2ccc(F)cc2)c(-c2ccnc(NCc3ccc(C)cc3)c2)[nH]1 | 4.65 |

P = CSc1nc(-c2ccc(F)cc2)c(-c2ccnc(OC(C)C)c2)[nH]1
Q = CC(Nc1cc(-c2[nH]c(SCc3ccc([S+](C)[O-])cc3)nc2-c2ccc(F)cc2)ccn1)c1ccccc1 (stereo not given)
Between item P and item Q , which reported pIC50 is smaller? Give the chosen item's label as your response. Q
(Q: 4.80, P: 5.66)
